Tgt: Rabies virus glycoprotein G, Challenge Virus Standard (CVS)-11 strain (Rabies virus, strain CVS-11 (genotype 1 Lyssavirus)) (UniProt O92284)
Sequence (O92284 20-524 limits assumed): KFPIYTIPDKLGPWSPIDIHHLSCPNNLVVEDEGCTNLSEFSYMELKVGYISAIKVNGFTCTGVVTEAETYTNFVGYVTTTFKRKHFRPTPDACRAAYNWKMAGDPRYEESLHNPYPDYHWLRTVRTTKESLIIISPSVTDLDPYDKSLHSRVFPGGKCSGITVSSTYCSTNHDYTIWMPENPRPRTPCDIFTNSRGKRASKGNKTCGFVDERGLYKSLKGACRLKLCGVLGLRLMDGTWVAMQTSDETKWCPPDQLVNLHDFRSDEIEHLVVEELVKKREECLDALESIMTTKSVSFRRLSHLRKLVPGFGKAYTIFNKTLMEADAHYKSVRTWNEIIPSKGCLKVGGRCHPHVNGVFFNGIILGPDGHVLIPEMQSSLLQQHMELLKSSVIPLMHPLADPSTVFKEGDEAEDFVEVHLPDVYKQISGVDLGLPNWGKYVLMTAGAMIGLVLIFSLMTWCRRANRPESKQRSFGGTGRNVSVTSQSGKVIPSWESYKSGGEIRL
Measurement notes: cell-based or functional assay
# CVS-11 neutralizing antibody titer (RFFIT), IU/mg per entry
Give the value, in units of IU/mg, as a plain number.

Measured CVS-11 neutralizing antibody titer (RFFIT), IU/mg of LG213H7 (VHH) VHH: EVQLVESGGGLVQAGGSLRLSCAASGRTLSSYRMGWFRQAPGKEREFISTISWNGRSTYYADSVKGRFIFSEDNAKNTVYLQMNSLKPEDTAVYYCAAALIGGYYSDVDAWSYWGPGTQVTVSS : 12.2

Values were extracted from patent US20200123233A1.
